# targetEntity: hERG potassium channel (Homo sapiens (Human), UniProt Q12809)
# Sequence (Q12809 whole entry): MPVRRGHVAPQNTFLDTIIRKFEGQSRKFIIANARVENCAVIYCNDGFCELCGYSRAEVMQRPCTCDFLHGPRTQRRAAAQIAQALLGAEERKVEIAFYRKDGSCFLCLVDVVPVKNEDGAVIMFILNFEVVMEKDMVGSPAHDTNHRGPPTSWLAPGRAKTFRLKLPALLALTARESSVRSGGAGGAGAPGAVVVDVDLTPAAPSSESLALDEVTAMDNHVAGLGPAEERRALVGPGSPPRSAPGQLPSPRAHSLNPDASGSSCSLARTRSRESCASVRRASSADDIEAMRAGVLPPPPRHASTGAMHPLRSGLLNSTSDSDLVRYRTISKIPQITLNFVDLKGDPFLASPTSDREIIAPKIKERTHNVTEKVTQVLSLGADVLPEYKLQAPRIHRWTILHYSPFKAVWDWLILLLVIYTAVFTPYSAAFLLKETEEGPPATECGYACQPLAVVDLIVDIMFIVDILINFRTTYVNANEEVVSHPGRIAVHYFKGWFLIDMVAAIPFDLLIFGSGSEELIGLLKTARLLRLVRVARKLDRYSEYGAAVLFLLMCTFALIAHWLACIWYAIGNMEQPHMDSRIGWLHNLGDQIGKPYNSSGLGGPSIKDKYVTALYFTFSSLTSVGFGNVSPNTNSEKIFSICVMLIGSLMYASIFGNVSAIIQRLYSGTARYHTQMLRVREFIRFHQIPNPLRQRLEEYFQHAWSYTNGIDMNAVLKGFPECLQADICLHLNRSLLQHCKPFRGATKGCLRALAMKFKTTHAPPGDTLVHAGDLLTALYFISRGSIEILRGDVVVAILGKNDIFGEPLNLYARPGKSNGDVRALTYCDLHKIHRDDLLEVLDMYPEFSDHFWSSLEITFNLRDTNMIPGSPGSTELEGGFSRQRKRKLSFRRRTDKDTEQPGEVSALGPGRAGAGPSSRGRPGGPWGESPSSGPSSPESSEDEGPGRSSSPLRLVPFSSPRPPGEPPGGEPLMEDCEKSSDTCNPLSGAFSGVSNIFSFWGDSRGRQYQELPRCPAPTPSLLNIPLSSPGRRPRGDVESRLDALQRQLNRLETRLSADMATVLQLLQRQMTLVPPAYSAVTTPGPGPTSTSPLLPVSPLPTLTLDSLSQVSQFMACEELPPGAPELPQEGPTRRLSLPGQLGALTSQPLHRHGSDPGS
# assay: hERG whole-cell patch-clamp in stably transfected CHO cells
# Format: cell-based
# conditionDescription: patch-clamp, CHO cells, 36±1° C.
quantityName: pIC50
On this scale, pIC50 is minus log10 of a concentration expressed in M (mol/L).

O=C(Nc1ccc([C@H]2CNCCO2)cc1)c1ccnc(Cl)c1 = 4.09
O=C(Nc1ccc([C@H]2CNCCO2)cc1)c1ccn(-c2ccccc2)n1 = 4.97

Param item = `Cc1cc(C(=O)Nc2ccc([C@H]3CNCCO3)cc2)cc(Cl)n1` ; retrieve measured pIC50.
4.14

Please give the result for `O=C(Nc1ccc([C@H]2CNCCO2)cc1)c1ccc(Cl)nc1` too.
4.30

Please give the result for `N#Cc1ccc(C(=O)Nc2ccc([C@H]3CNCCO3)cc2)cn1` too.
4.50

Please give the result for `O=C(Nc1ccc([C@H]2CNCCO2)cc1)c1ccc(Cl)cn1` too.
4.85

Please give the result for `O=C(Nc1ccc([C@H]2CNCCO2)cc1)c1csc(-c2ccccc2)n1` too.
5.05

Please give the result for `Cc1c(C(=O)Nc2ccc([C@H]3CNCCO3)cc2)n[nH]c1-c1ccccc1` too.
4.97

Please give the result for `O=C(Nc1ccc([C@H]2CNCCO2)cc1)c1ccc(OCC(F)(F)F)nc1` too.
5.01
